Value source: the MegaScale stability set (Tsuboyama et al. 2023)

B1: EEHEE_rd3_1049 (parent)
chain: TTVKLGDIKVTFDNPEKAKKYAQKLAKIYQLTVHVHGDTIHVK

# Variants of: B1
# Measurement description: folding stability dG (cDNA display proteolysis); higher = more stable
# Test settings: PBS, room temperature
Metric: folding stability dG (kcal/mol)

> print(dat)
    variant.descriptor  meas.value
 1                K24D        1.36
 2                T11W        2.74
 3                T32D        1.33
 4                 V3M       0.732
 5                A26V       0.862
 6                Y21S      -0.364
 7                V10C        2.92
 8                H41P       0.283
 9                L31G        1.66
10                K20N        1.66
11                H36Y        2.19
12                T11Y        2.69
13                A22H       0.262
14                I40W        1.28
15                 L5R       0.884
16                Y29M        1.26
17                T39K       0.943
18                A22R       0.612
19                N14M         1.2
20                 V3F       0.742
21                V33I        2.37
22                L31T        1.06
23                K27W        2.05
24                D38E        1.47
25                L25M        1.55
26                K27P      -0.326
27                V10W        3.21
28                K20A        2.27
29                T11S        1.77
30                K43S        2.17
31                Y21R       0.268
32                Q23V        1.73
33                G37E         1.3
34                Y21C        2.04
35                T11H        2.31
36                V42T       0.607
37                 K9F        2.24
38                A18Q       0.175
39                K24Q        1.86
40                Y29T       0.658
41                Y21N      -0.383
42                 K4D        1.09
43                G37F        1.38
44                E16P        0.35
45                H41T        2.23
46                K20F         1.8
47                 G6P        0.61
48                D38K        1.85
49                 T1S        1.23
50                K19I        2.54
51                H34R        1.64
52                 V3R       0.673
53                 K9Y        2.42
54                V10P        0.26
55                G37W        1.25
56                E16W        1.93
57                K17S        2.05
58                H34W        2.15
59                K43T        2.48
60                D38P        1.42
61                L25N      -0.312
62                A26F        1.11
63                 D7R        3.21
64                 K4S        1.61
65                 D7Y        2.94
66                 I8P       0.237
67                A18N       0.152
68                 T2W         1.6
69                 T2N        1.17
70                K27R        2.27
71                K24N        1.58
72                 L5W        2.83
73                H34P      -0.084
74                Q30F        1.87
75                 D7A         2.6
76                T11L        2.21
77                K24G        1.23
78                I40N       0.239
79                 T1Q        1.06
80                H34S        2.03
81                Y29F        2.11
82                V10H        1.06
83                Q30S        2.06
84                K19S        1.49
85                K19V        1.97
86                K24I        2.28
